- Tested on: Mycobacterium ranae (ATCC 110)
- measurement conditions: ATCC 110
Where a SMILES comes first, the peptide text is derived from it. [ ]: non-standard residue; d: D form. ξ: configuration not given here. ξTic = O=C(O)C1Cc2ccccc2CN1; ξOic = O=C(O)C1CC2CCCCC2N1
recorded metric: MIC Mycobacterium ranae (µM)
Respond numerically; units are µM and should not be typed.

## Input Which MIC Mycobacterium ranae is reported with Mycobacterium ranae (ATCC 110) for this entry: CC(=O)N[C@@H](Cc1ccccc1)C(=O)N1Cc2ccccc2CC1C(=O)N1C(C(=O)N[C@@H](CCCCN)C(=O)N2Cc3ccccc3CC2C(=O)N2C(C(=O)N[C@@H](Cc3ccccc3)C(=O)N3Cc4ccccc4CC3C(=O)N3C(C(=O)N[C@@H](CCCCN)C(=O)N4Cc5ccccc5CC4C(=O)N[C@@H](CCCCN)C(=O)N[C@@H](CCCCN)C(=O)N[C@@H](CCCCN)C(=O)N[C@@H](CCCCN)C(N)=O)CC4CCCCC43)CC3CCCCC32)CC2CCCCC21 (stereo partly shown) [FKAB-1Gc] (Ac-F[ξTic][ξOic]K[ξTic][ξOic]F[ξTic][ξOic]K[ξTic]KKKK-NH2) ?
## Output 30.00
